System name: UniProt:Q12809
Sequence (Q12809 whole entry): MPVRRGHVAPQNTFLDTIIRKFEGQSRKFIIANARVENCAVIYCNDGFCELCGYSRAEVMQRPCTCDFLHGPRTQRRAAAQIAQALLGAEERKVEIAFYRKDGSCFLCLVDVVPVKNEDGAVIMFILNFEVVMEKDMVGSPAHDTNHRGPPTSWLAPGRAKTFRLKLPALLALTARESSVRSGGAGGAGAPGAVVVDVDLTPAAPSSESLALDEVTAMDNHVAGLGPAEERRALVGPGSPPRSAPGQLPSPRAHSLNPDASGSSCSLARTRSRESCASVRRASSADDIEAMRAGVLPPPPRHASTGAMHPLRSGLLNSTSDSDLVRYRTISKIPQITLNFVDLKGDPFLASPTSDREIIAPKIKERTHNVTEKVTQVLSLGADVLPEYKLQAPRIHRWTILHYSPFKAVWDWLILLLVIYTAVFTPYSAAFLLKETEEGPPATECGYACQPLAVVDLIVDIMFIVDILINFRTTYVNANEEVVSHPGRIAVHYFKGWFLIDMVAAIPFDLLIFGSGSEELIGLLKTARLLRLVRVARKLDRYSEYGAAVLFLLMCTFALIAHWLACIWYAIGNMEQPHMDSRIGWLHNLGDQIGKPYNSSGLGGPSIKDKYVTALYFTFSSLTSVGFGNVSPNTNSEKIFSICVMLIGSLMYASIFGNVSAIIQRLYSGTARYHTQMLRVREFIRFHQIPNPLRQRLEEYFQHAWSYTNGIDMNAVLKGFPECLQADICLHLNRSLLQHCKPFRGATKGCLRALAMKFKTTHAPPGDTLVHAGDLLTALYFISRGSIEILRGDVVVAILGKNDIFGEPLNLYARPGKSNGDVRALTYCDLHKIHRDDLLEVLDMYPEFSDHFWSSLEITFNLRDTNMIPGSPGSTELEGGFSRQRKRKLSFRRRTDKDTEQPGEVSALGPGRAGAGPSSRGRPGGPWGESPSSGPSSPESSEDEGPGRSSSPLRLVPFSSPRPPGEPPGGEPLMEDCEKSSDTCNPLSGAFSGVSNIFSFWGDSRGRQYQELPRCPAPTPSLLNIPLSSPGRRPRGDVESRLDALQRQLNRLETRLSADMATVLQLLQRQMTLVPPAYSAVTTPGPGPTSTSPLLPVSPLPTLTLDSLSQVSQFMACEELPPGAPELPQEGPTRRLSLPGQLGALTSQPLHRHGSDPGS
Assay explanation: Inhibition of hERG expressed in CHO cells at -80 mV holding potential by manual patch clamp method
pIC50: −log10 of the molar value.
Quantity kind: pIC50

The compound listed as `O=C(O)c1cn(C2CC2)c2cc(Nc3nccc(Cc4ccc(F)cc4F)n3)ccc2c1=O` has a reported pIC50 of < 4.40

* * *

Assay explanation: MRT (0 to t) in male Sprague-Dawley rat at 10 mg/kg, iv administered as single dose and measured upto 24 hrs by LC-MS/MS analysis
Assay type: ADME, organism-based
Run parameters: in vivo
Quantity kind: MRT last at 24 h
Please answer in the form of a number followed by its unit of measurement.

MRT last at 24 h measured on `O=C(O)c1cn(C2CC2)c2cc(Nc3nccc(Cc4ccc(F)cc4F)n3)ccc2c1=O` = 1.01 h

* * *

Assay explanation: MRT (0 to infinity) in male Sprague-Dawley rat at 20 mg/kg, po administered as single dose and measured upto 24 hrs by LC-MS/MS analysis
Type: ADME, organism-based
Run parameters: in vivo
Quantity kind: MRT inf (h)
API: value field is a number in h; no unit string.

Documented MRT inf of `O=C(O)c1cn(C2CC2)c2cc(Nc3nccc(Cc4ccc(F)cc4F)n3)ccc2c1=O` : 4.2

* * *

Assay explanation: MRT (0 to infinity) in male Sprague-Dawley rat at 10 mg/kg, iv administered as single dose and measured upto 24 hrs by LC-MS/MS analysis
Assay type: ADME, organism-based
Run parameters: in vivo
Quantity kind: MRT inf (h)
Response body: numeric value in h, unit text excluded.

Entry under test: `O=C(O)c1cn(C2CC2)c2cc(Nc3nccc(Cc4ccc(F)cc4F)n3)ccc2c1=O` . Its MRT inf was 1.2

* * *

Assay explanation: AUC (0 to infinity) in male Sprague-Dawley rat at 10 mg/kg, iv administered as single dose and measured upto 24 hrs by LC-MS/MS analysis
Type: ADME, organism-based
Run parameters: in vivo
Quantity kind: AUC(0-inf) (ng·h/mL)
Respond numerically; units are ng·h/mL and should not be typed.

AUC(0-inf) recorded for this compound, `O=C(O)c1cn(C2CC2)c2cc(Nc3nccc(Cc4ccc(F)cc4F)n3)ccc2c1=O` , is 9100

* * *

Assay explanation: Metabolic stability in rat liver microsomes assessed as compound remaining at 1 uM measured after 60 mins by LC-MS/MS analysis
Type: ADME, Microsome
Run parameters: read-out: Stability
Quantity kind: remaining at 1 h, 1 µM (%)
Reply with just the number (in %).

Looking up `Cc1ncc2n1-c1ccc(Cl)cc1C(c1ccccc1F)=NC2` , I see its remaining at 1 h, 1 µM listed as 0.48

Measured remaining at 1 h, 1 µM of `Cc1ccc(Cc2ccnc(Nc3ccc4c(=O)c(C(=O)O)cn(C5CC5)c4c3)n2)cc1C` : 49.6

Item: `O=C(O)c1cn(C2CC2)c2cc(Nc3nccc(Cc4ccc(F)cc4F)n3)ccc2c1=O` | remaining at 1 h, 1 µM: 35.7

* * *

Assay explanation: Clearance in male Sprague-Dawley rat at 10 mg/kg, iv administered as single dose and measured upto 24 hrs by LC-MS/MS analysis
Type: ADME, organism-based
Run parameters: in vivo
Quantity kind: clearance (mL/min/kg)
Reply numerically in mL/min/kg, unit not repeated.

Reported clearance for `O=C(O)c1cn(C2CC2)c2cc(Nc3nccc(Cc4ccc(F)cc4F)n3)ccc2c1=O` was 18.5
